Hello, the source for this data is patent US12201592B2, in case you need it.

tested on: phospho-Y705 Stat3 (pSTAT3) in melanoma A375 cells; experiment: Immunoblot of Stat3 Y705-phosphorylation in intact cells; format: cell-based, human; conditions: Homo sapiens, A-375; A375 cells; 1.3 hr post-treatment (FIG. 6A); read-out: IC50 of inhibition of Stat3 phosphorylation (pStat3)
Parameter: IC50

Input line: What does the data say about its IC50? Entry: `Oc1cc(CNC(=S)/C=C/c2cc(O)c(O)c(Br)c2)cc(O)c1O`
Output line: ~2 µM

Input line: Try the compound `Oc1cc(CNC(=S)/C=C/c2ccc(O)c(O)c2Br)cc(O)c1O`
Output line: ~2 µM
